- assay text: Toxicity liver stage against HepG2, at 10uM
- Format: cell-based
- Parameters: test concentration 10 uM, cell line HepG2-A16-CD81EGFP
- test settings: human, HepG2-A16-CD81EGFP cells; read-out: INHIBITION
Catalogue of cytotoxicity at 10 µM readings, one per entry.
quantity kind: cytotoxicity at 10 µM (%)

compound=Fc1cnc(N2CCc3nnc(COc4ccccn4)n3CC2)nc1 quantity_kind="cytotoxicity at 10 µM" unit_info=% experimental_result=8.13
compound=Cc1ccc2cc(C(=O)N3CCS(=O)(=O)CC3)[nH]c2c1 quantity_kind="cytotoxicity at 10 µM" unit_info=% experimental_result=-56.3
compound="Cc1nc(C)n(C2CCCN(C(=O)CCc3cn(C)nc3C)C2)n1 (centres undefined)" quantity_kind="cytotoxicity at 10 µM" unit_info=% experimental_result=-11.5
compound=CCOCCn1nc(C)cc1C(=O)N1CC(C)(C)[C@@](C)(O)C1 quantity_kind="cytotoxicity at 10 µM" unit_info=% experimental_result=0.301
compound=CC(C)c1noc(-c2cccc(OCC(N)=O)c2)n1 quantity_kind="cytotoxicity at 10 µM" unit_info=% experimental_result=-7.39
compound=O=C(N1CCCO1)[C@@]12CCO[C@@H]1CCN(Cc1ccccn1)C2 quantity_kind="cytotoxicity at 10 µM" unit_info=% experimental_result=3.98
compound=CCSc1nc(N)c(NC(=O)c2ccc(C)cc2)c(=O)[nH]1 quantity_kind="cytotoxicity at 10 µM" unit_info=% experimental_result=-57.3
compound="O=C(c1ccccn1)N1CCN(C(c2ccccc2)C(F)(F)F)CC1 (centres undefined)" quantity_kind="cytotoxicity at 10 µM" unit_info=% experimental_result=-8.18
compound="COCCN1CCC12CCN(C(=O)c1ccc(C)nc1)C2 (centres undefined)" quantity_kind="cytotoxicity at 10 µM" unit_info=% experimental_result=-102
compound="Cn1cc(C2(C)CN(C(=O)COc3ccccc3F)CCO2)cn1 (centres undefined)" quantity_kind="cytotoxicity at 10 µM" unit_info=% experimental_result=0.814
compound=O=C1[C@H]2CN(Cc3ccccn3)C[C@H]2CN1c1ccsc1 quantity_kind="cytotoxicity at 10 µM" unit_info=% experimental_result=-73.2
compound=COc1nccc(N2CC[C@@H](N3CCN(C)CC3)[C@H](O)C2)c1C#N quantity_kind="cytotoxicity at 10 µM" unit_info=% experimental_result=-147
compound=O=C(c1cccnc1Oc1ccc(Cl)cc1)N1CC[C@@H](O)C1 quantity_kind="cytotoxicity at 10 µM" unit_info=% experimental_result=-3.36
compound="O=C(c1ccnc(N2CCOC(C(F)(F)F)C2)c1)N1CCOCC1 (centres undefined)" quantity_kind="cytotoxicity at 10 µM" unit_info=% experimental_result=2.52
compound="CN(C)S(=O)(=O)N1CCC(c2n[nH]cc2-c2ccnc(N)c2)C1 (centres undefined)" quantity_kind="cytotoxicity at 10 µM" unit_info=% experimental_result=8.81
compound=CCSCCOC(=O)CCCc1ccc2c(c1)CC(=O)N2 quantity_kind="cytotoxicity at 10 µM" unit_info=% experimental_result=6.34
compound=COc1ccc(-c2cc(C3(O)CCN(C)CC3)on2)cc1 quantity_kind="cytotoxicity at 10 µM" unit_info=% experimental_result=3.89
compound="Cc1ccc(-c2cc(N)c(=O)n(C(C)C(N)=O)n2)o1 (centres undefined)" quantity_kind="cytotoxicity at 10 µM" unit_info=% experimental_result=-1.89
compound="CC1CN(CC2CCCC2)CCN1c1ccc2nncn2n1 (centres undefined)" quantity_kind="cytotoxicity at 10 µM" unit_info=% experimental_result=6.36
compound="Cc1nn(C)c(Cl)c1C1CCCN1CC(=O)NC1CCCCC1 (centres undefined)" quantity_kind="cytotoxicity at 10 µM" unit_info=% experimental_result=7.09
compound=CNC(=O)Cc1n[nH]c(-c2cncc(Br)c2)n1 quantity_kind="cytotoxicity at 10 µM" unit_info=% experimental_result=-4.97
compound="CNc1cc(C2CN(C(=O)c3ccn(C)n3)CCO2)nc(C)n1 (centres undefined)" quantity_kind="cytotoxicity at 10 µM" unit_info=% experimental_result=12.6
compound="CC(Cn1cncn1)NC(=O)NCC(C)(C)c1ccc(F)cc1 (centres undefined)" quantity_kind="cytotoxicity at 10 µM" unit_info=% experimental_result=13.6
compound=O=C(c1cscn1)N(CCCO)S(=O)(=O)c1cccs1 quantity_kind="cytotoxicity at 10 µM" unit_info=% experimental_result=-11.3
